Tested on: Escherichia coli
Assay: Antibacterial activity against Escherichia coli harbouring TolC-deficient mutant assessed as post antibiotic effect by measuring time required for increase in 1 log10 CFU/ml of bacteria at 32 times MIC incubated for 1 hr followed by compound washout and measured for 16 hrs
Type: functional
I'd be grateful if you could share measured PAE for these entries.
Report as a plain number; the unit h is understood.

Per the record, CC(C)[C@H](NC(=O)C[C@H](NC(=O)CCCCCCCCCCn1cc(CCCCOCCOCCOCCOCCOCCOCCOCCOCCOCCOc2ccc(Br)c(-c3cc4cnc(N)nc4nc3N)c2Br)nn1)c1ccccc1)C(=O)[C@@H]1C(=O)NC(=O)[C@H]1C has PAE of 3.4

Form: compound = CC(C)[C@H](NC(=O)C[C@H](NC(=O)CCCCCCCCCCn1cc(CCCCOCCOCCOCCOCCOCCOCCOCCOCCOCCOCCOCCOCCOc2ccc(Br)c(-c3cc4cnc(N)nc4nc3N)c2Br)nn1)c1ccccc1)C(=O)[C@@H]1C(=O)NC(=O)[C@H]1C ; PAE = 3.6

The reported PAE of the compound CC(C)[C@H](NC(=O)C[C@H](NC(=O)CCCCCCCCCCn1cc(CCCCOCCOCCOCCOCCOCCOCCOc2ccc(Br)c(-c3cc4cnc(N)nc4nc3N)c2Br)nn1)c1ccccc1)C(=O)[C@@H]1C(=O)NC(=O)[C@H]1C was 3.4

Noted for CC(C)[C@H](NC(=O)C[C@H](NC(=O)CCCCCCCCCCn1cc(CCCCOCCOCCOCCOCCOCCOCCOCCOCCOCCOCCOCCOCCOCCOCCOCCOc2ccc(Br)c(-c3cc4cnc(N)nc4nc3N)c2Br)nn1)c1ccccc1)C(=O)[C@@H]1C(=O)NC(=O)[C@H]1C : its PAE reads 4.6

The value of PAE measured for the compound CC(C)[C@H](NC(=O)C[C@H](NC(=O)CCCCCCCCCCn1cc(CCCCOCCOCCOCCOc2ccc(Br)c(-c3cc4cnc(N)nc4nc3N)c2Br)nn1)c1ccccc1)C(=O)[C@@H]1C(=O)NC(=O)[C@H]1C turned out to be 2.6

# PAE of CC(C)[C@H](NC(=O)C[C@H](NC(=O)CCCCCCCCCCn1cc(CCCCOc2ccc(Br)c(-c3cc4cnc(N)nc4nc3N)c2Br)nn1)c1ccccc1)C(=O)[C@@H]1C(=O)NC(=O)[C@H]1C = 3.8

----------
Test system: Escherichia coli
Assay: Displacement of 11-(4-(22-(2,4-dibromo-3-(2,7-diaminopyrido[2,3-d]pyrimidin-6-yl)phenoxy)-5,8,11,14,17,20-hexaoxadocos-1-yl)-1H-1,2,3-triazol-1-yl)-N-((1S)-3-(((2S)-3-methyl-1-((3R,4S)-4-methyl-2,5-dioxopyrrolidin-3-yl)-1-oxobutan-2-yl)amino)-3-oxo-1-phenylpropyl)undecanamide from Escherichia coli ACC expressed in Escherichia coli BL21(DE3) pLysS at 100 uM preincubated for 1 hr followed by compound addition by LC-MS/MS method
The source made the active and inactive calls. The calls are words filed in the database; no cut-off is given here.

| smiles-entry | Activity |
| --- | --- |
| C/C=C/C=C/C(=O)N[C@@H](CC(=O)N[C@H](C(=O)[C@@H]1C(=O)NC(=O)[C@H]1C)C(C)C)c1ccccc1 | inactive |
| CC(C)[C@H](NC(=O)C[C@H](NC(=O)CCCCCCCCCCn1cc(CCCCOCCOCCOCCOCCOCCOCCOCCOCCOCCOCCOCCOCCOc2ccc(Br)c(-c3cc4cnc(N)nc4nc3N)c2Br)nn1)c1ccccc1)C(=O)[C@@H]1C(=O)NC(=O)[C@H]1C | inactive |
| CC(C)[C@H](NC(=O)C[C@H](NC(=O)CCCCCCCCCCn1cc(CCCCOc2ccc(Br)c(-c3cc4cnc(N)nc4nc3N)c2Br)nn1)c1ccccc1)C(=O)[C@@H]1C(=O)NC(=O)[C@H]1C | inactive |

----------
Assay: Inhibition of Escherichia coli ACC expressed in Escherichia coli BL21(DE3) pLysS incubated for 45 mins in presence of ATP and acetyl coA by fluorescence polarization assay
measure: IC50 (nM)
Reply with just the number (in nM).

So for C#CCCCCOCCOCCOCCOc1ccc(Br)c(-c2cc3cnc(N)nc3nc2N)c1Br , the logged IC50 turned out to be 19

For CC(C)[C@H](NC(=O)C[C@H](NC(=O)CCCCCCCCCCN=[N+]=[N-])c1ccccc1)C(=O)[C@@H]1C(=O)NC(=O)[C@H]1C the molecule record lists IC50 as 74

IC50 in this record for C#CCCCCOCCOCCOCCOCCOCCOCCOCCOCCOCCOCCOCCOCCOCCOCCOCCOc1ccc(Br)c(-c2cc3cnc(N)nc3nc2N)c1Br : 64

Measured IC50 of C#CCCCCOCCOCCOCCOCCOCCOCCOc1ccc(Br)c(-c2cc3cnc(N)nc3nc2N)c1Br : 32

----------
Tested on: Escherichia coli
Assay: Antibacterial activity against tolC knockout Escherichia coli incubated for 24 hrs in presence of PMBN by microbroth dilution method
Assay type: functional
measure: MIC (µM)
Response body: numeric value in µM, unit text excluded.

// recorded MIC for CC(C)[C@H](NC(=O)C[C@H](NC(=O)CCCCCCCCCCn1cc(CCCCOCCOCCOCCOCCOCCOCCOCCOCCOCCOCCOCCOCCOCCOCCOCCOc2ccc(Br)c(-c3cc4cnc(N)nc4nc3N)c2Br)nn1)c1ccccc1)C(=O)[C@@H]1C(=O)NC(=O)[C@H]1C : 1.56

Quick note, MIC for C#CCCCCOCCOCCOCCOCCOCCOCCOCCOCCOCCOCCOCCOCCOCCOCCOCCOCCOCCOCCOc1ccc(Br)c(-c2cc3cnc(N)nc3nc2N)c1Br landed at 12.5

Please fill in: MIC reported for C#CCCCCOCCOCCOCCOCCOCCOCCOCCOCCOCCOc1ccc(Br)c(-c2cc3cnc(N)nc3nc2N)c1Br = 12.5
